# Experiment: Plasma AMG 232 pharmacokinetics (HPLC-MS, non-compartmental analysis)
# Assay type: in vivo, human
# Assay Conditions: human, plasma, oral, 240 mg, Day 1, 240-mg dose expansion, Other Solid (n = 9–16); read-out: AUC24h, mean (SD)
# Procedure: Non-compartmental analysis was performed using WinNonlin Professional software, version 6.3. Parameters were summarized descriptively.
Measured Parameter: AUC(0-t) (ng·h/mL)
The reply should contain only the number, in ng·h/mL.

Noted for CC(C)[C@@H](CS(=O)(=O)C(C)C)N1C(=O)[C@@](C)(CC(=O)O)C[C@H](c2cccc(Cl)c2)[C@H]1c1ccc(Cl)cc1 : its AUC(0-t) reads 10800

The origin of these recorded values is paper PMC7211202.
